# Tested on: MCC-13
# assay-details: qHTS assay to identify novel small-molecules to repurpose for Merkel cell carcinoma treatment (AID 1296009); note: nearly all actives have a fitted effect of over 60% in size
# condition-description: MCC and control cell lines, CellTiter-Glo viability, 72 h; series mostly up to 46 µM
Results filed as inconclusive are left out. The source made the active and inactive calls. Calls come from the whole dose curve; as a rule, active = well fitted inhibition curve with a large enough effect; inconclusive = small, poorly fitted or top-dose-only effect; inactive = flat fitted curve, though single readings scatter.
Output constraint: value belongs to Yes = active, No = inactive

>>> label("COc1cc2cc(c1Cl)N(C)C(=O)C[C@H](OC(=O)C(C)C)[C@]1(C)O[C@H]1[C@H](C)[C@@H]1C[C@@](O)(NC(=O)O1)[C@H](OC)C=CC=C(C)C2")
"No"
>>> label("COC(=O)[C@@H](N)CCCN=C(N)N[N+](=O)[O-]")
"No"

Please indicate how the test categorized CC1=C(O)C(=O)C=C2C1=CC=C1[C@@]2(C)CC[C@@]2(C)[C@@H]3C[C@](C)(C(=O)O)CC[C@]3(C)CC[C@]12C . Yes

Consider next the molecule O=[N+]([O-])/N=C1\NCCN1Cc1ccc(Cl)nc1 in the same way. No

Consider next the molecule CC1(C)CC/C(=C/c2ccc(Cl)cc2)C1(O)Cn1cncn1 (stereo unspecified) in the same way. No

Consider next the molecule O=C(N[C@H]1CN2CCC1CC2)c1ccc(Cl)cc1 in the same way. No

Consider next the molecule CC(C)N[C@@H]1CCn2c(=O)[nH]c3cccc(c32)[C@@H]1O in the same way. No

Consider next the molecule CCCCCCCCc1ccc(O)cc1 in the same way. No

Consider next the molecule COCCOCCO in the same way. No

Consider next the molecule CC[N+]1(CCOC(=O)C(O)(c2ccccc2)c2ccccc2)CCCCC1 in the same way. No

Consider next the molecule CC(C)(O)C=CC(=O)[C@](C)(O)[C@H]1[C@H](O)C[C@]2(C)[C@@H]3CC=C4[C@@H](C=C(O)C(=O)C4(C)C)[C@]3(C)C(=O)C[C@@]12C in the same way. Yes

Consider next the molecule Nc1ccc(Sc2ccc(N)cc2)cc1 in the same way. No

Consider next the molecule CC1=NN=C(c2ccc(N)cc2)c2cc3c(cc2C1)OCO3 in the same way. No

Consider next the molecule C1CCC(NC2CCCCC2)CC1 in the same way. No

Consider next the molecule O=c1[nH]c2ccccc2n1C1CCN(Cc2ccc(-c3[nH]c4cc5ncnc5cc4nc3-c3ccccc3)cc2)CC1 in the same way. No

Consider next the molecule COC(=O)c1cncn1C(C)c1ccccc1 (stereo unspecified) in the same way. No

---

# assay-details: Quantitative High-Throughput drug screen in 47 multiple myeloma cell lines against the NCATS MIPE library collection: Karpas25_ECACC cell viability assay (AID 1918968; note: nearly all actives have a fitted effect of over 35% in size)
# condition-description: Karpas25 myeloma viability, CellTiter-Glo ATP, 48 h; series mostly up to 45.8 µM
Inconclusive results are not listed. Activity calls are given as the source filed them. The call rests on the fitted dose curve; in most records, active means well fitted cell-killing curve with a large enough effect; inconclusive means small, poorly fitted or top-dose-only effect, or effect the other way; inactive means no such curve, though single readings can be large or run the other way.
Output constraint: value belongs to active, inactive

Worked examples follow.
>>> label("CC(C)(O)C(=O)Nc1ccc([N+](=O)[O-])c(C(F)(F)F)c1")
"active"
>>> label("O=C(NCC1CCOCC1)c1cnc(Nc2ccc(Cl)cc2Cl)nc1C(F)(F)F")
"active"
>>> label("CCOC(=O)c1cncn1[C@H](C)c1ccccc1")
"inactive"

Please indicate how the test categorized COCC1(CO)C(=O)C2CCN1CC2 (stereo unspecified) . active

Consider next the compound CCc1c(C(=O)C(N)=O)c2c(OCC(=O)O)cccc2n1Cc1ccccc1 in the same way. inactive

Consider next the compound COc1cc([C@@H]2c3cc4c(cc3[C@@H](O)C3COC(=O)C32)OCO4)cc(OC)c1O (stereo partly specified) in the same way. active

---

# assay-details: qHTS for Inhibitors of the Functional Ribonucleoprotein Complex (vRNP) of Lassa (LASV) Arenavirus: Viability assay - alamar blue signal for LASV Primary Screen (AID 1347083); note: nearly all actives have a fitted effect of over 80% in size
# condition-description: cell viability, alamar blue fluorescence (LASV minigenome counter-screen); series mostly up to 57.5 µM
Records with an inconclusive call do not appear. The source made the active and inactive calls. The call rests on the fitted dose curve; tested in HEK293 reporter line.
Output constraint: value belongs to active, inactive

Worked examples follow.
>>> label("CC(=O)N[C@@H](CCC(N)=O)C(=O)O")
"inactive"
>>> label("CCCOC(=O)c1ccc(O)cc1")
"inactive"
>>> label("Nc1nc2c(ncn2CCC(CO)CO)c(=O)[nH]1")
"inactive"

Please indicate how the test categorized Nc1ccc(Cl)cc1 . inactive

Consider next the compound COc1cccc2c1CCCC2CCCN1CCN(C2CCCCC2)CC1 (stereo unspecified) in the same way. inactive

Consider next the compound CN(C)CC=CC(=O)Nc1cc2c(Nc3ccc(F)c(Cl)c3)ncnc2cc1O[C@H]1CCOC1 in the same way. active

---

# System: CASKI
# assay-details: Primary qHTS to identify gynecologic anti-cancer compounds using libraries of approved drugs and bioactive compounds (AID 1345084); note: nearly all actives have a fitted effect of over 55% in size
# condition-description: Gynecologic cancer cell panel viability, ATPlite luminescence, 48 h; series mostly up to 57.5 µM
Inconclusive results are not listed. Calls of active or inactive are those of the source. The call rests on the fitted dose curve; in most records, active means well fitted cell-killing curve with a large enough effect; inconclusive means small, poorly fitted or top-dose-only effect, or effect the other way; inactive means flat fitted curve, though single readings scatter.
Output constraint: value belongs to Y (active), N (inactive)

Worked examples follow.
>>> label("C=CCC1=C(C)C(OC(=O)C2C(C=C(C)C)C2(C)C)CC1=O (stereo not given)")
"N"
>>> label("O=C(O)c1cc(Oc2ccc(C(F)(F)F)cc2Cl)ccc1[N+](=O)[O-]")
"N"
>>> label("O=C(O)COc1ccccc1")
"N"
>>> label("Cc1ccc(Cl)c(O)c1")
"N"
>>> label("COC1=C[C@@H]2[C@@H]3Cc4ccc(OC)c(O)c4[C@]2(CCN3C)CC1=O")
"N"
>>> label("O=C(N[C@H]1CN2CCC1CC2)c1ccc(Cl)cc1")
"N"
>>> label("CC(C)[C@]12O[C@H]1[C@@H]1O[C@]13[C@]1(O[C@H]1C[C@H]1C4=C(CC[C@@]13C)C(=O)OC4)[C@@H]2O")
"Y"
>>> label("O=C(O)C(Cl)Cl")
"N"
>>> label("O=C(O)CCCOc1ccc(Cl)cc1Cl")
"N"
>>> label("CCCCCCCCCC(CC)c1ccc(S(=O)(=O)O)cc1 (stereo not given)")
"N"

Please indicate how the test categorized O=[N+]([O-])c1c(Cl)c(Cl)cc(Cl)c1Cl . N

Consider next the compound CCOC(=O)Nc1ccc(NCc2ccc(F)cc2)cc1N in the same way. N

Consider next the compound Cc1ccccc1-n1c(Cn2cnc3c(N)ncnc32)nc2cccc(C)c2c1=O in the same way. N

Consider next the compound O=C(Oc1ccc([N+](=O)[O-])cc1)N1CCN(Cc2cccc(Oc3ccccc3)c2)CC1 in the same way. N

Consider next the compound CC(Cc1ccc(O)cc1)NCC(O)c1cc(O)cc(O)c1 (stereo not given) in the same way. N

Consider next the compound CC(C)NCC(O)c1ccc([N+](=O)[O-])cc1 (stereo not given) in the same way. N

---

# assay-details: Quantitative High-Throughput drug screen in 47 multiple myeloma cell lines against the NCATS MIPE library collection: JIM1_ECACC cell viability assay (AID 1918964; note: potency is the fitted concentration of half-maximal effect)
# condition-description: JIM1 myeloma viability, CellTiter-Glo ATP luminescence, 48 h; series mostly up to 45.8 µM
Records with an inconclusive call do not appear. The source made the active and inactive calls. Calls follow the shape of the dose curve; as a rule, active = well fitted cell-killing curve with a large enough effect; inconclusive = small, poorly fitted or top-dose-only effect, or effect the other way; inactive = no such curve, though single readings can be large or run the other way.
observation-type: Potency

Observe how each entry below is paired with its result.
>>> test_value("CCNC(=O)CC1N=C(c2ccc(Cl)cc2)c2cc(OC)ccc2-n2c(C)nnc21 (stereo not drawn)")
"16.6 µM (active)"
>>> test_value("O=S(=O)(CC1CS1)c1ccc(Oc2ccccc2)cc1 (stereo not drawn)")
"inactive"
>>> test_value("Clc1ccccc1C(c1ccccc1)(c1ccccc1)n1cccn1")
"inactive"
>>> test_value("CCc1c(C(=O)C(N)=O)c2c(OCC(=O)O)cccc2n1Cc1ccccc1")
"inactive"

Return reported Potency; argument: C[C@@H]1O[C@@H](O[C@@H]2C=C3CC[C@@H]4[C@@H](CC[C@]5(C)[C@H](c6ccc(=O)oc6)CC[C@@]45O)[C@@]3(C)CC2)[C@H](O)[C@H](O)[C@H]1O 0.0132 µM (active)

Consider next the compound COc1cc([C@@H]2c3cc4c(cc3[C@@H](O)C3COC(=O)C32)OCO4)cc(OC)c1O (stereo partly drawn) in the same way. 0.0042 µM (active)

Consider next the compound COc1cc2cc(c1Cl)N(C)C(=O)C[C@H](OC(=O)C(C)C)[C@]1(C)O[C@H]1[C@H](C)[C@@H]1C[C@@](O)(NC(=O)O1)[C@H](OC)C=CC=C(C)C2 in the same way. inactive

Consider next the compound CC(N[C@H]1C[C@H]1c1ccccc1)c1ccc2c(c1)OCCO2 (stereo partly drawn) in the same way. inactive

---

# assay-details: NS1 protein of Zika virus - qHTS assay to identify small molecule inhibitors in human HEK 293 cells (AID 1347053); note: nearly all actives have a fitted effect of over 55% in size
# condition-description: HEK293 ZIKV MR766 infection, NS1 TR-FRET, 24 h; series mostly up to 46.1 µM
Records with an inconclusive call do not appear. The source made the active and inactive calls. The call rests on the fitted dose curve; in most records, active means well fitted inhibition curve with a large enough effect; inconclusive means small, poorly fitted or top-dose-only effect; inactive means no such curve, though single readings can be large or run the other way.
observation-type: outcome

Observe how each entry below is paired with its result.
>>> test_value("C[C@]12CCC(=O)C(O)=C1CC[C@@H]1[C@H]3CCC(=O)[C@@]3(C)CC[C@@H]12")
"inactive"
>>> test_value("CCNC(=O)CC1N=C(c2ccc(Cl)cc2)c2cc(OC)ccc2-n2c(C)nnc21 (stereo unspecified)")
"inactive"
>>> test_value("Cc1nc(-c2ccc(-c3ccc(C(=O)N4CCc5cc6c(cc54)C4(CCN(C)CC4)CO6)cc3)c(C)c2)no1")
"inactive"
>>> test_value("COC(=O)c1cncn1C(C)c1ccccc1 (stereo unspecified)")
"inactive"
>>> test_value("CCCCc1ccc(C(=O)O)nc1")
"inactive"
>>> test_value("O=S(=O)(O)C(F)(F)C(F)(F)C(F)(F)C(F)(F)F")
"inactive"

Return reported outcome; argument: O=C(NCC1CCOCC1)c1cnc(Nc2ccc(Cl)cc2Cl)nc1C(F)(F)F inactive

Consider next the molecule OCCCBr in the same way. inactive
